Target: GNB2L1 C182 (P63244) (Homo sapiens, UniProt P63244)
Test: Competitive isoTOP-ABPP, cell lysates;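 on isoTOP-ABPP reactivity profile ratio, P63244 C182: Heavy/light ratio DMSO over fragment-treated so higher means more cysteine engagement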
Assay type: binding
Settings: 500 μm, in-vitro_ramos_231
Task for the reader: assign each of the following compounds its reported isoTOP-ABPP reactivity profile ratio, P63244_C182.
Give bare numbers.

Recorded isoTOP-ABPP reactivity profile ratio, P63244_C182, per entry:
- compound: "CC1CCc2ccccc2N1C(=O)CCl (stereo not drawn)"
  target.under.test: "GNB2L1 C182 (P63244) (Homo sapiens, UniProt P63244)"
  observed.measurement: 0.9
- compound: "COc1cc(NC(=O)CCl)cc(OC)c1"
  target.under.test: "GNB2L1 C182 (P63244) (Homo sapiens, UniProt P63244)"
  observed.measurement: 0.9

Proceed to the following item.
Looking up "C=CC(=O)N(c1ccccc1)C1CCCCC1" , I see its isoTOP-ABPP reactivity profile ratio, P63244_C182 listed as 0.8

* * *

Biological target: cysteines in MDA-MB-231 and Ramos cells (Homo sapiens)
Experiment: Competitive isoTOP-ABPP in situ (fragment-treated cells)
Assay type: cell-based
Conditions: 200 μM, insitu, 231
outcome.measure: isoTOP-ABPP ratio P61978_C132
Give bare numbers.

- compound: "CC1CCc2ccccc2N1C(=O)CCl (stereo not shown)"
  observed.measurement: 9.3
- compound: "O=C(CCl)NC(=O)NC12CC3CC(CC(C3)C1)C2"
  observed.measurement: 7.5

# batch size: 2; output isoTOP-ABPP ratio P61978_C132 per entry
1. C=CC(=O)Nc1cc(F)c(N2CCN(C(=O)OC(C)(C)C)CC2)c(F)c1
2. COc1ccccc1OCCNC(=O)CCl

Response given:
1: 1.0; 2: 1.0

# batch size: 3; output isoTOP-ABPP ratio P61978_C132 per entry
1. O=C(CCl)N1CCN(S(=O)(=O)c2ccccc2F)CC1
2. O=C(CCl)NCCc1c[nH]c2ccccc12
3. C=CC(=O)N(Cc1cccnc1)c1cc(C(F)(F)F)cc(C(F)(F)F)c1

Response given:
5.6
1.1
0.9

* * *

Biological target: cysteines in MDA-MB-231 and Ramos cells (Homo sapiens, UniProt P38606)
Sequence (P38606 whole entry, the tested form may be a part): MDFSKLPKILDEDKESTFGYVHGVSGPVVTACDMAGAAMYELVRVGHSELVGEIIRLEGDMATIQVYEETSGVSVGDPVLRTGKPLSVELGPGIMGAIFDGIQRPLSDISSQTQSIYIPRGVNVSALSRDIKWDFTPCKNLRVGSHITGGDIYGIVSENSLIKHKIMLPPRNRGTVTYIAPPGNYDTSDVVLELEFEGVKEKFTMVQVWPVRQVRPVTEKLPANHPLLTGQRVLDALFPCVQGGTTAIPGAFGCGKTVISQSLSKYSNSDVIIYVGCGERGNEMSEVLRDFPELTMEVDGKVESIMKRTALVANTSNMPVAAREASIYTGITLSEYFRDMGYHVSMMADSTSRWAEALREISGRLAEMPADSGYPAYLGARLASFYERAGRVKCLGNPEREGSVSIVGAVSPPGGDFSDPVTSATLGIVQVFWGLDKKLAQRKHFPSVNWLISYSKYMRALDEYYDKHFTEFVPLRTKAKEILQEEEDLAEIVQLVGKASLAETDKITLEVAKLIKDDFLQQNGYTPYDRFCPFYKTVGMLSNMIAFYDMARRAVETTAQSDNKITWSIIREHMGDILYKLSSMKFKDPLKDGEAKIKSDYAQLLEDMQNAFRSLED
Assay: Competitive isoTOP-ABPP in situ (fragment-treated cells)
Format: cell-based
Conditions: 200 μM, insitu, 231
outcome.measure: isoTOP-ABPP ratio P38606_C138
Answers are plain numbers.

Recorded isoTOP-ABPP ratio P38606_C138, per entry:
- compound.smiles: "Cc1ccc(C=C(C#N)C(=O)NCCN2CCOCC2)cc1"
  isoTOP-ABPP ratio P38606_C138: 0.8
- compound.smiles: "C=CC(=O)Nc1cc(F)c(N2CCN(C(=O)OC(C)(C)C)CC2)c(F)c1"
  isoTOP-ABPP ratio P38606_C138: 2.1
- compound.smiles: "O=C(CCl)NC(=O)NC12CC3CC(CC(C3)C1)C2"
  isoTOP-ABPP ratio P38606_C138: 20.0
- compound.smiles: "O=C(CCl)NC12CC3CC(CC(C3)C1)C2"
  isoTOP-ABPP ratio P38606_C138: 20.0
- compound.smiles: "O=C(CCl)NCCc1c[nH]c2ccccc12"
  isoTOP-ABPP ratio P38606_C138: 20.0

# batch size: 2; output isoTOP-ABPP ratio P38606_C138 per entry
1. O=C(CCl)N1CCN(S(=O)(=O)c2ccccc2F)CC1
2. CC(C)CCOCCNC(=O)CCl

Response given:
[20.0, 4.6]

* * *

Target: ACAT1 C196 (P24752) (Homo sapiens, UniProt P24752)
Sequence (P24752 34-427): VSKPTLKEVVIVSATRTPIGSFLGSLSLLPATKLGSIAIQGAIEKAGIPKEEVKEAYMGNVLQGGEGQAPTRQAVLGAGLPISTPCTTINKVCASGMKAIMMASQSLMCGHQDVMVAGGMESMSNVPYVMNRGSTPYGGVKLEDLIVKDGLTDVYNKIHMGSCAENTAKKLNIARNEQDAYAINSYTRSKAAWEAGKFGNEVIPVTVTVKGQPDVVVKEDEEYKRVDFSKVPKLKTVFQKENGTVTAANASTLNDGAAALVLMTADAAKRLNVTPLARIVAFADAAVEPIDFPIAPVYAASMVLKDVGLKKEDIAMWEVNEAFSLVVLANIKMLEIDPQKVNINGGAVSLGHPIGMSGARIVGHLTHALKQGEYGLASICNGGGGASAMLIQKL
Experiment: Competitive isoTOP-ABPP, cell lysates
Format: binding
Conditions: 500 μm, in-vitro_ramos
outcome.measure: isoTOP-ABPP reactivity ratio, P24752_C196
Answers are plain numbers.

Recorded isoTOP-ABPP reactivity ratio, P24752_C196, per entry:
- compound.smiles: "Cc1ccc(C=C(C#N)C(=O)NCCN2CCOCC2)cc1"
  target.under.test: "ACAT1 C196 (P24752) (Homo sapiens, UniProt P24752)"
  observed.measurement: 1.0
- compound.smiles: "O=C(CCl)N(Cc1ccc(F)cc1)C12CC3CC(CC(C3)C1)C2"
  target.under.test: "ACAT1 C196 (P24752) (Homo sapiens, UniProt P24752)"
  observed.measurement: 1.0

Proceed to the following item.
Looking up "C=CC(=O)N1CCC(c2noc3ccc(F)cc23)CC1" , I see its isoTOP-ABPP reactivity ratio, P24752_C196 listed as 1.0

* * *

Task for the reader: assign each of the following compounds its reported isoTOP-ABPP ratio (reactivity profile), O00170_C122.
Target: AIP C122 (O00170) (Homo sapiens)
Sequence (O00170 whole entry): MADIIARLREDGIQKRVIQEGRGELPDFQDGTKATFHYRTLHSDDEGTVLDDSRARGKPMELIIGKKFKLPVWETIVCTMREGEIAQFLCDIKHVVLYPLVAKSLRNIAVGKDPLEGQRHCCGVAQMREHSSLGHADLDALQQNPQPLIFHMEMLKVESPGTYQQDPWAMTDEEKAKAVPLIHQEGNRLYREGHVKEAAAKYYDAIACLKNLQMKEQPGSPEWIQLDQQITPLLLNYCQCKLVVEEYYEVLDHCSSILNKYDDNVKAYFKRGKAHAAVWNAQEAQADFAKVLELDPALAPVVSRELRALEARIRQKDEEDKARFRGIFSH
Assay: Competitive isoTOP-ABPP, cell lysates
Type: binding
Conditions: 500 μm in-vitro ramos
Give bare numbers.

- compound: "CC(Br)C(=O)Nc1cc(C(F)(F)F)cc(C(F)(F)F)c1 (stereo not shown)"
  observed.measurement: 1.3
- compound: "N#C/C(=C\\c1cc(C(F)(F)F)cc(C(F)(F)F)c1)C(N)=O"
  observed.measurement: 1.4
- compound: "O=C(CCl)N1CCOCC1"
  observed.measurement: 1.1

Looking up "CC(C)CCOCCNC(=O)CCl" , I see its isoTOP-ABPP ratio (reactivity profile), O00170_C122 listed as 1.0

* * *

Biological target: PRMT1 C109 (Q99873) (Homo sapiens)
Sequence (Q99873 whole entry): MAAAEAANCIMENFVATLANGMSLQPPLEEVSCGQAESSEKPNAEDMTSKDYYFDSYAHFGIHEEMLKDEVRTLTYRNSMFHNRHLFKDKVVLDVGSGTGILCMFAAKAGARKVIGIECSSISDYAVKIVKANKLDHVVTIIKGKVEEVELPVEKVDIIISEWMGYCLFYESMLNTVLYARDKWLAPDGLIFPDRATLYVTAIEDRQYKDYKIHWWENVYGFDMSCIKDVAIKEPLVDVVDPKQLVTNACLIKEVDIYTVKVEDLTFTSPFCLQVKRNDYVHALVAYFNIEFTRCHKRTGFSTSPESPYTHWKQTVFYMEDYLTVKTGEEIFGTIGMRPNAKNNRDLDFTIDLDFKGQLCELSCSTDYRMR
Experiment: Competitive isoTOP-ABPP, cell lysates
Assay type: binding
Settings: 500 μm, in-vitro_ramos_231
Task for the reader: assign each of the following compounds its reported isoTOP-ABPP reactivity ratio, Q99873_C109.
Give bare numbers.

Recorded isoTOP-ABPP reactivity ratio, Q99873_C109, per entry:
- compound.smiles: "C=CC(=O)Nc1cc(C)c(Br)cc1C"
  target.under.test: "PRMT1 C109 (Q99873) (Homo sapiens)"
  observed.measurement: 0.8
- compound.smiles: "O=C(CCl)N(Cc1ccc(F)cc1)C12CC3CC(CC(C3)C1)C2"
  target.under.test: "PRMT1 C109 (Q99873) (Homo sapiens)"
  observed.measurement: 0.8
- compound.smiles: "Cc1ccc(C=C(C#N)C(=O)NCCN2CCOCC2)cc1"
  target.under.test: "PRMT1 C109 (Q99873) (Homo sapiens)"
  observed.measurement: 0.9
- compound.smiles: "C=CC(=O)Nc1cc(F)c(N2CCN(C(=O)OC(C)(C)C)CC2)c(F)c1"
  target.under.test: "PRMT1 C109 (Q99873) (Homo sapiens)"
  observed.measurement: 0.9

Proceed to the following item.
Looking up "O=C(CCl)Nc1cc(C(=O)O)cc(C(F)(F)F)c1" , I see its isoTOP-ABPP reactivity ratio, Q99873_C109 listed as 1.0

* * *

Task for the reader: assign each of the following compounds its reported isoTOP-ABPP ratio (reactivity profile), Q8TAQ2_C145.
Target: UniProtKB Q8TAQ2
Sequence (Q8TAQ2 whole entry): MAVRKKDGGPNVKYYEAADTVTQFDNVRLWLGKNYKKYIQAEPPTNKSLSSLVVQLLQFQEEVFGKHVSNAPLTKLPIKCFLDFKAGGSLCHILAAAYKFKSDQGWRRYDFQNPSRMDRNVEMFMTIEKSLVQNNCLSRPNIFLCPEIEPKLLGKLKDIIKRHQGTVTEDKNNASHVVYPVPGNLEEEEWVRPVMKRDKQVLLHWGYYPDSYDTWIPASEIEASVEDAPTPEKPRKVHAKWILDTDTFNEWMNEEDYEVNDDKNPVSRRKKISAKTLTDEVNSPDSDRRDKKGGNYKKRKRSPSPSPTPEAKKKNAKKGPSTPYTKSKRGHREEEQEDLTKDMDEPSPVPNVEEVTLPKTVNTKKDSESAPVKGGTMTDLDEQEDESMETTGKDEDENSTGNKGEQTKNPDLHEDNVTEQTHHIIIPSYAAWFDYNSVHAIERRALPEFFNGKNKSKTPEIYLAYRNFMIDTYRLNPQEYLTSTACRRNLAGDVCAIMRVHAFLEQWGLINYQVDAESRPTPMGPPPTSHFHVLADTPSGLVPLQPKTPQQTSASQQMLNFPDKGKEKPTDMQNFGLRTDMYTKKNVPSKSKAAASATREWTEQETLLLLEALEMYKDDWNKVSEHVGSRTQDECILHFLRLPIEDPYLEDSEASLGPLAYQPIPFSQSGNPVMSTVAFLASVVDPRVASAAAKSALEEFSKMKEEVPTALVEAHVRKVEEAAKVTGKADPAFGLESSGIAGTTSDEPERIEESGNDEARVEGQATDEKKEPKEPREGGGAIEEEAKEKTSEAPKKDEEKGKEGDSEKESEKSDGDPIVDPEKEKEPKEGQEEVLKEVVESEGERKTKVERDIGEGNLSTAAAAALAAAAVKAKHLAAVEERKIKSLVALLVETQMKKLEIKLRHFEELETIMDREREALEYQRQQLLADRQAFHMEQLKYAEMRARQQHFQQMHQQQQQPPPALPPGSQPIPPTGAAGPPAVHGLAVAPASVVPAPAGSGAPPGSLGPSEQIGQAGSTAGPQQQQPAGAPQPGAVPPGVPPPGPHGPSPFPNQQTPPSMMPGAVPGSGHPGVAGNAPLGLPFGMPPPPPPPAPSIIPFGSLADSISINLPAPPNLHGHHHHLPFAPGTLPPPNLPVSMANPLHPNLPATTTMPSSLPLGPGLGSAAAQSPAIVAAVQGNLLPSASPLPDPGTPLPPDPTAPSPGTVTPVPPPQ
Assay: Competitive isoTOP-ABPP, cell lysates
Type: binding
Conditions: 500 μm in-vitro ramos
Method: TEV digests were pressure loaded onto a 250 μm (inner diameter) fused silica capillary column packed with C18 resin (Aqua 5 μm, Phenomenex). The samples were analyzed by multidimensional liquid chromatography tandem mass spectrometry (MudPIT), using an LTQ-Velos Orbitrap mass spectrometer (Thermo Scientific) coupled to an Agilent 1200-series quaternary pump. […]
Answers are plain numbers.

Recorded isoTOP-ABPP ratio (reactivity profile), Q8TAQ2_C145, per entry:
- compound: "CC(Br)C(=O)Nc1cc(C(F)(F)F)cc(C(F)(F)F)c1 (stereo not shown)"
  observed.measurement: 5.4
- compound: "CCN(CC)c1ccc(S(N)(=O)=O)cc1NC(=O)CCl"
  observed.measurement: 1.1
- compound: "O=C(CCl)N1CCOCC1"
  observed.measurement: 1.2

Proceed to the following item.
Looking up "COc1ccccc1OCCNC(=O)CCl" , I see its isoTOP-ABPP ratio (reactivity profile), Q8TAQ2_C145 listed as 1.2

* * *

Task for the reader: assign each of the following compounds its reported isoTOP-ABPP ratio Q9NYL9_C132.
Molecular target: cysteines in MDA-MB-231 and Ramos cells (Homo sapiens)
Sequence (Q9NYL9 1-352): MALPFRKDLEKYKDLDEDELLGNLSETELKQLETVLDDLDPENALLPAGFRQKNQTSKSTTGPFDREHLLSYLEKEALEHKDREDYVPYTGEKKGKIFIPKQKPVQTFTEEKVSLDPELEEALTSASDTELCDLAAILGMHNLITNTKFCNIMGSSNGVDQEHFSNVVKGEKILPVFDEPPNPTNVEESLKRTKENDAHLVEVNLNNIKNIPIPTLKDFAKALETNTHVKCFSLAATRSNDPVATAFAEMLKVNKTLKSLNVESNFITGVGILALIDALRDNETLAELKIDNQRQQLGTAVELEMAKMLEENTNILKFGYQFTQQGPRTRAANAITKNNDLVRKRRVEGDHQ
Test: Competitive isoTOP-ABPP in situ (fragment-treated cells)
Assay type: cell-based
Conditions: 200 μM, insitu, 231
One number for each entry.

# batch size: 3; output isoTOP-ABPP ratio Q9NYL9_C132 per entry
1. CC(C)CCOCCNC(=O)CCl [compound 27]
2. O=C(CCl)Nc1cccc2ncccc12 [compound 51]
3. O=C(CCl)NC(=O)NC12CC3CC(CC(C3)C1)C2 [compound 12]

Response given:
1. 0.6
2. 0.8
3. 0.6

# batch size: 4; output isoTOP-ABPP ratio Q9NYL9_C132 per entry
1. CC1CCc2ccccc2N1C(=O)CCl (centres unmarked) [compound 45]
2. C=CC(=O)N(Cc1cccnc1)c1cc(C(F)(F)F)cc(C(F)(F)F)c1 [compound 31]
3. COc1ccccc1OCCNC(=O)CCl [compound 28]
4. O=C(CCl)NC12CC3CC(CC(C3)C1)C2 [compound 21]

Response given:
1: 0.9; 2: 0.7; 3: 0.7; 4: 1.4

Record Cc1ccc(C=C(C#N)C(=O)NCCN2CCOCC2)cc1 [compound 41] / cysteines in MDA-MB-231 and Ramos cells (Homo sapiens), isoTOP-ABPP ratio Q9NYL9_C132 recorded as 0.3
